Reference for the values: the supplement of paper PMC9694430

- System: LOC_OS01G57100-cb003;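 note: purified Escherichia coli-expressed rice kinase domain construct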
- experimentalDetails: thermal shift delta Tm vs DMSO control; higher = stronger stabilization (binding)
- conditionParameters: 12.5 µM; protein concentration 2 µM

[
  {
    "molecule": "Cn1cc(-c2ccc3c(c2)CCN3C(=O)Cc2cccc(C(F)(F)F)c2)c2c(N)ncnc21",
    "thermal shift delta Tm (°C)": 1.46
  },
  {
    "molecule": "CC(C)(CO)n1cc(C(=O)c2cncc(NC(=O)Cc3ccc(Cl)cn3)c2)c2cnc(N)nc21",
    "thermal shift delta Tm (°C)": 0.95
  },
  {
    "molecule": "CCCCCCCCCCCCCCCCOP(=O)([O-])OCC[N+](C)(C)C",
    "thermal shift delta Tm (°C)": -11.3
  },
  {
    "molecule": "CN1CCN(c2cccc(Nc3nc4c(-c5ccc(S(C)(=O)=O)cc5)cccn4n3)c2)CC1",
    "thermal shift delta Tm (°C)": 0.76
  },
  {
    "molecule": "O=c1cc(-c2cccc3c2Sc2ccccc2S3)oc(N2CCOCC2)c1",
    "thermal shift delta Tm (°C)": 0.21
  },
  {
    "molecule": "CC(C)n1nc(-c2ccc3oc(N)nc3c2)c2c(N)ncnc21",
    "thermal shift delta Tm (°C)": 0.15
  },
  {
    "molecule": "CC#CC(=O)Nc1ccc2ncnc(Nc3cccc(Br)c3)c2c1",
    "thermal shift delta Tm (°C)": -0.79
  },
  {
    "molecule": "COc1cc(Nc2ncc(F)c(Nc3ccc4c(n3)NC(=O)C(C)(C)O4)n2)cc(OC)c1OC [R406 (free base)]",
    "thermal shift delta Tm (°C)": 5.12
  },
  {
    "molecule": "COc1nccc(-c2c(-c3ccc(F)cc3)ncn2C2CCC(O)CC2)n1 (centres undefined)",
    "thermal shift delta Tm (°C)": 1.45
  }
]
